# System: 4T1 murine breast cancer cells
# procedureSummary: Example S: in vitro anticancer screen, 4T1 cells, Wst1
# Format: cell-based, mouse
# measurementConditions: Mus musculus, 4T1, 18 h, 5 μM, 18 hr, Wst1; read-out: 4T1 5 μM, percent of cancer cell survival relative to vehicle treated cells
readout: viability at 5 µM (%)
// return numeric value only (unit: %, not printed)

>  <compound>
CCCCCCOc1cccc(OCCNc2ccnc3ccccc23)c1

>  <resultUnits>
%

>  <viability at 5 µM>
18.4

$$$$
>  <compound>
CCCCCCOCCCCCCCCn1cnc2cccnc21

>  <resultUnits>
%

>  <viability at 5 µM>
96.6

$$$$
>  <compound>
c1ccc(COc2cccc(CNc3ccnc4ccccc34)c2)cc1 [BU, N-[3-(Benzyloxy)benzyl]quinolin-4-amine]

>  <resultUnits>
%

>  <viability at 5 µM>
21.4

$$$$
>  <compound>
c1ccc(Oc2cccc(Nc3ccnc4ccccc34)c2)cc1

>  <resultUnits>
%

>  <viability at 5 µM>
28.6

$$$$
>  <compound>
O=C(NCCCCNc1ccnc2ccccc12)c1ccccc1 [DW, N-[4-(Quinolin-4-ylamino)butyl]benzamide]

>  <resultUnits>
%

>  <viability at 5 µM>
194

$$$$

# input for lookup
Q: Which value of viability at 5 µM has been reported for c1ccc(CNc2ccnc3ccccc23)nc1 in the records?
Result: 128

* * *

# Body Weight (g) Mean ± SEM Initial per entry
# Tested on: Hep3B hepatocellular carcinoma cell line
# measurementConditions: in vivo
Your answer should be a plain number; it is taken to be in g.

Q: Which Body Weight (g) Mean ± SEM Initial reading was recorded for the compound CCCCCCOc1cccc(CNc2ccnc3ccccc23)c1 [Compound AC, N-[3-(Hexyloxy)benzyl]quinolin-4-amine] ?
Result: 25.4

Q: Request the reported Body Weight (g) Mean ± SEM Initial associated with CNC(=O)c1cc(Oc2ccc(NC(=O)Nc3ccc(Cl)c(C(F)(F)F)c3)cc2)ccn1 [Sorafenib, sorafenib, reference compound]
Result: 25.9

Q: Which value of Body Weight (g) Mean ± SEM Initial has been reported for CCCCCCOc1ccc(CNc2ncnc3ccccc23)cc1 [AB, N-[4-(Hexyloxy)benzyl]quinazolin-4-amine] in the records?
Result: 26.2

Q: Quick check: Body Weight (g) Mean ± SEM Initial of CCCCCCOc1cccc(CNc2ncnc3ccccc23)c1 [AK, N-[3-(Hexyloxy)benzyl]quinazolin-4-amine] ?
Result: 25.9

* * *

# System: Candida albicans strains
# procedureSummary: Example N: MIC and MFC (CLSI) against Candida albicans
# Assay type: cell-based
# measurementConditions: Candida albicans, read-out: MIC 100%, Range; 24 hr, three clinical strains
readout: MIC

>  <molecule>
CCCCCCOCCCCCCCCNc1ccnc2cc(Cl)ccc12

>  <MIC>
4 to 8 µg/mL

$$$$
>  <molecule>
CCCCOCCCCCCCCCCNc1ccnc2ccccc12

>  <MIC>
2 to 4 µg/mL

$$$$
>  <molecule>
CCCCCCOCCCCCCCCNc1ccnc2c(Cl)cccc12

>  <MIC>
0.5 to 4 µg/mL

$$$$
>  <molecule>
CCCCCCCCCCNc1ncnc2ccccc12

>  <MIC>
0.12 to 4 µg/mL

$$$$
>  <molecule>
CCCCCCOCCCCCCCCCCNc1ccnc2ccccc12 [Compound AL, N-[10-(Hexyloxy)decyl]quinolin-4-amine]

>  <MIC>
2 to 4 µg/mL

$$$$

Q: State its MIC on Candida albicans strains: CCCCCCOc1cccc(CNc2ccnc3ccccc23)c1 [Compound AC, N-[3-(Hexyloxy)benzyl]quinolin-4-amine]
Result: 0.12 to 1 µg/mL

Q: Request: MIC, test system Candida albicans strains, entry COc1ccc(OCCCCCCCCNc2ncnc3ccccc23)cc1
Result: 0.5 to 4 µg/mL

Q: Could you share what MIC was measured for CCCCCCCCCCNc1ccnc2ccccc12 , tested on Candida albicans strains?
Result: 0.5 to 2 µg/mL
